measured-on: T1, PUF4 RNA-binding domain (Saccharomyces cerevisiae, UniProt P25339 537-888)
T1 sequence: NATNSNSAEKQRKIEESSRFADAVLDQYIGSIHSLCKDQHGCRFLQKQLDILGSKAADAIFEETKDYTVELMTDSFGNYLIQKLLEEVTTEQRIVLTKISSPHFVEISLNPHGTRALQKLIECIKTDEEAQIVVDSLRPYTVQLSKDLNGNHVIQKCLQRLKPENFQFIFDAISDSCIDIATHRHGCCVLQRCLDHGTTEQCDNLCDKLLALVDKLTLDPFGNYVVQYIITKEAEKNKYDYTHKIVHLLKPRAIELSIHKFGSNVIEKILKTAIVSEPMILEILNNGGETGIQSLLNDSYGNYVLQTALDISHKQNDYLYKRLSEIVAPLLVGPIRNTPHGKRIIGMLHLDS
assay-name: Mg; RNA-MaP; 20 mM Na-HEPES pH 7.4, 30 mM KOAc, 0.75 mM MgCl2, 0.1% Tween-20, 5% glycerol, 0.1 mg/mL BSA, 2 mM DTT; 25 C; 0.0125-409.6 nM protein
protocol-conditions: tags: N-His6-TEV cleaved; C-SNAP kept, Cy3B-labelled; label: tethered on chip by stalled RNA polymerase
quantity-name: Kd (µM)
Give bare numbers, in µM.

UCUCUUUGUAUCAGUCUCUU (ssRNA) [Ic_S1_P3E.1_K3.1_C3.1_H3.1_A3.1_[A6C]_F3.1_[T7A]_[A8G]_T3.1] :: 0.483
UCUCUUUGUAUCGGUUCUCUU (ssRNA) [Ic_S1_P4E.1_K4.1_C4.1_H4.1_A4.1_[A6C]_[T7G]_F4.1_[T8G]_[A9T]_T4.1] :: 0.938

Here's the next entry for you.
Quick note, Kd for Ic_S4_P3E.1_K3.1_C3.1_H3.1_A3.1_[T5C]_[A6G]_F3.1_[T7C]_T3.1 (ssRNA) RNA: UUUGACAACUGAUCGUUCUUUCUUGUACGCAUUCUUUCUCGAUCAGUUGUCUUU landed at 0.444
